test system: TO-3-N3 (biotin conjugate); experiment: pull-down binding Z-score (relative to library population); higher = stronger binding; settings: RNA library: Library-2
pull-down binding Z-score values by entry

>  <entry_sequence>
GACAGGGAAAAGCACACAAGGAACUUGUC [hsa-mir-3909]

>  <pull-down binding Z-score>
-0.138

$$$$
>  <entry_sequence>
GCGCUGCCAGAAACUGGCAAAGCGC [bulge-AA]

>  <pull-down binding Z-score>
-0.184

$$$$
>  <entry_sequence>
AUCAAAGUGGGGACUCAUGGGGAGAG [hsa-mir-4284]

>  <pull-down binding Z-score>
3.11

$$$$
>  <entry_sequence>
GUUCGUGUUGUUUUAGAUUUCAUCUAAACGAAC

>  <pull-down binding Z-score>
-0.845

$$$$
>  <entry_sequence>
CUCUCAUUUUGUUAACUUAGACAACCUGAGAG

>  <pull-down binding Z-score>
-0.827

$$$$
>  <entry_sequence>
AUAGAUUAUGUACCACUAAAGUCUGCUACGUGUAUAACACGUUGCAAUUUAGGUGGUGCUGUCUGU

>  <pull-down binding Z-score>
-0.766

$$$$
>  <entry_sequence>
CCCUAGGACUUACUUGUGCAGGG [hsa-mir-4253]

>  <pull-down binding Z-score>
-0.256

$$$$
>  <entry_sequence>
UGAGUGUGACAUACCCAUUGGUGCAGGUAUAUGCGCUAGUUAUCAGACUCA

>  <pull-down binding Z-score>
0.734

$$$$
>  <entry_sequence>
CAGAGUGUGCAUGGCAGGCU [hsa-mir-7156]

>  <pull-down binding Z-score>
0.383

$$$$
>  <entry_sequence>
CCAAGGAAAUUUUGG

>  <pull-down binding Z-score>
-0.192

$$$$
>  <entry_sequence>
CCUCGAAGCUGCCUUUAGAAAUGAGG [hsa-mir-4496]

>  <pull-down binding Z-score>
-0.0169

$$$$

Cited source: the supplement of paper PMC11865577
